Target: HDAC3 (Homo sapiens, UniProt O15379)
Construct: purchased Reaction Biology Corporation (assay run by the CRO)
Sequence (O15379 whole entry): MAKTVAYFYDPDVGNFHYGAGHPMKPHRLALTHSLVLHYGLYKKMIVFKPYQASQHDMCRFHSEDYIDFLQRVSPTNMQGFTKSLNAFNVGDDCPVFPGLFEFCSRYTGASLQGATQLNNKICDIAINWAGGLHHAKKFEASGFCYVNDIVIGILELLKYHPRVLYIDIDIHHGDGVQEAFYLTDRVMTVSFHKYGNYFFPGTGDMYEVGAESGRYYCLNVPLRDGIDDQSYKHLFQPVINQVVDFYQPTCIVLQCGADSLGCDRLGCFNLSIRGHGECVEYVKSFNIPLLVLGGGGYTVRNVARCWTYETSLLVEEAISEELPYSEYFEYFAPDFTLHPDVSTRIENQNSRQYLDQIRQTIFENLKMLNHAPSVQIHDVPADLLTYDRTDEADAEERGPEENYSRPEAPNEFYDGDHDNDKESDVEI
Sequence (Q9Y618 395-489 partner limits assumed): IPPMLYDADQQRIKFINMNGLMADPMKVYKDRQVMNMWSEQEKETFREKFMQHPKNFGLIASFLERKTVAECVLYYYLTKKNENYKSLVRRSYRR
Test: HDAC3 inhibition, full IC50 measurement (Reaction Biology; fluorogenic p53 peptide RHKK(Ac)AMC)
Assay type: biochemical
Conditions: Conc. 3.70E-07 M, t2
Peptide text beside a SMILES is read from it.
readout-type: HDAC3 activity raw data (signal)

INSERT INTO assay_data (molecule, reported) VALUES
  ('N=C(N)NCCC[C@@H]1NC(=O)[C@H](Cc2c[nH]c3ccccc23)NC(=O)[C@H](CC(=O)O)NC(=O)[C@@H](CO)NC(=O)[C@H](Cc2c[nH]c3ccccc23)NC(=O)[C@H](CCCCCS)NC(=O)[C@H](CCC(N)=O)NC1=O [des4.1.0, SHA-Trp-dSer-Asp-Trp-Arg-Gln] (HELM PEPTIDE1{D.W.R.Q.[O=C([C@H](CCCCCS)N[*:1])[*:2]].W.[dS]}$PEPTIDE1,PEPTIDE1,1:R1-7:R2$$$V2.0)', 162137),
  ('N=C(N)NCCC[C@@H]1NC(=O)[C@@H](CCCNC(=N)N)NC(=O)[C@H]2CCCN2C(=O)[C@@H](Cc2c[nH]cn2)NC(=O)[C@H](Cc2ccc(O)cc2)NC(=O)[C@H](CCCCCS)NC(=O)[C@H](CCc2ccccc2)NC(=O)[C@@H](CO)NC(=O)[C@H](CC(=O)O)NC1=O [des3.3.1, SHA-Tyr-dHis-dPro-dArg-Arg-Asp-dSer-C27] (HELM PEPTIDE1{[O=C([C@H](CCCCCS)N[*:1])[*:2]].Y.[dH].[dP].[dR].R.D.[dS].[O=C([C@H](CCc1ccccc1)N[*:1])[*:2]]}$PEPTIDE1,PEPTIDE1,1:R1-9:R2$$$V2.0)', 17560),
  ('N=C(N)NCCC[C@H]1NC(=O)[C@@H]2CCCN2C(=O)[C@H](CO)NC(=O)[C@@H](Cc2c[nH]cn2)NC(=O)[C@H](CCCCCS)NC(=O)[C@H](CCCCN)NC(=O)[C@H](Cc2ccc(O)cc2)NC(=O)[C@H]2CCCN2C(=O)[C@@H](CCC(N)=O)NC1=O [des3.1.0, SHA-dHis-Ser-Pro-dArg-dGln-dPro-Tyr-Lys] (HELM PEPTIDE1{K.[O=C([C@H](CCCCCS)N[*:1])[*:2]].[dH].S.P.[dR].[dQ].[dP].Y}$PEPTIDE1,PEPTIDE1,1:R1-9:R2$$$V2.0)', 672322),
  ('CC(C)[C@@H]1NC(=O)[C@H](CCCNC(=N)N)NC(=O)[C@@H](CC(=O)O)NC(=O)[C@H](CO)NC(=O)[C@@H](CO)NC(=O)[C@@H](CCC(=O)O)NC(=O)[C@H](Cc2ccc(O)cc2)NC(=O)[C@H](CCCCCS)NC1=O [des4.2.0, SHA-Tyr-dGlu-dSer-Ser-dAsp-Arg-Val] (HELM PEPTIDE1{R.V.[O=C([C@H](CCCCCS)N[*:1])[*:2]].Y.[dE].[dS].S.[dD]}$PEPTIDE1,PEPTIDE1,1:R1-8:R2$$$V2.0)', 296142),
  ('NCCCC[C@@H]1NC(=O)[C@@H]2CCCN2C(=O)[C@H](CC(N)=O)NC(=O)[C@H](CCCCCS)NC(=O)CNC(=O)[C@H](Cc2c[nH]c3ccccc23)NC(=O)[C@@H](CCCCN)NC(=O)[C@H](CCC(N)=O)NC1=O [des1.1.0, SHA-Asn-Pro-Lys-Gln-dLys-Trp-Gly] (HELM PEPTIDE1{G.[O=C([C@H](CCCCCS)N[*:1])[*:2]].N.P.K.Q.[dK].W}$PEPTIDE1,PEPTIDE1,1:R1-8:R2$$$V2.0)', 201749),
  ('CCCC[C@H]1NC(=O)[C@H](Cc2ccccc2)NC(=O)[C@H](CCCCCS)NC(=O)[C@@H](CCCNC(=N)N)NC(=O)[C@H](CC(=O)O)NC(=O)[C@@H](CO)NC(=O)[C@@H](C)NC(=O)[C@H](CCCCN)NC1=O [des4.3.1, SHA-Phe-dNle-Lys-dAla-dSer-Asp-dArg] (HELM PEPTIDE1{D.[dR].[O=C([C@H](CCCCCS)N[*:1])[*:2]].F.[CCCC[C@@H](N[*:1])C(=O)[*:2]].K.[dA].[dS]}$PEPTIDE1,PEPTIDE1,1:R1-8:R2$$$V2.0)', 779442),
  ('CC(C)C[C@H]1NC(=O)[C@H](Cc2c[nH]c3ccccc23)NC(=O)[C@H](CCCCCS)NC(=O)[C@@H](Cc2ccc(O)cc2)NC(=O)[C@@H](C(C)C)NC(=O)[C@H](Cc2c[nH]cn2)NC(=O)CNC(=O)CNC(=O)[C@@H](CO)NC1=O [des2.2.0, SHA-Trp-dLeu-dSer-Gly-Gly-His-dVal-dTyr] (HELM PEPTIDE1{G.G.H.[dV].[dY].[O=C([C@H](CCCCCS)N[*:1])[*:2]].W.[dL].[dS]}$PEPTIDE1,PEPTIDE1,1:R1-9:R2$$$V2.0)', 1161998),
  ('NCCCC[C@H]1NC(=O)[C@H](CCC(N)=O)NC(=O)[C@H](CCC(=O)O)NC(=O)[C@@H]2CCCN2C(=O)[C@H](CC(N)=O)NC(=O)[C@H](CCCCCS)NC(=O)CNC(=O)[C@H](Cc2c[nH]c3ccccc23)NC1=O [des1.1.1, SHA-Asn-Pro-Glu-Gln-dLys-Trp-Gly] (HELM PEPTIDE1{E.Q.[dK].W.G.[O=C([C@H](CCCCCS)N[*:1])[*:2]].N.P}$PEPTIDE1,PEPTIDE1,1:R1-8:R2$$$V2.0)', 276336),
  ('CSCC[C@H]1NC(=O)[C@@H](CO)NC(=O)[C@H](CC(N)=O)NC(=O)[C@H](CC(=O)O)NC(=O)[C@@H]([C@H](C)O)NC(=O)[C@H](Cc2c[nH]c3ccccc23)NC(=O)[C@H](CCCCCS)NC(=O)[C@H](CCCCN)NC(=O)[C@@H](CC(=O)O)NC1=O [des2.1.1, SHA-Trp-dThr-Asp-Asn-dSer-dMet-dAsp-Lys] (HELM PEPTIDE1{D.N.[dS].[dM].[dD].K.[O=C([C@H](CCCCCS)N[*:1])[*:2]].W.[dT]}$PEPTIDE1,PEPTIDE1,1:R1-9:R2$$$V2.0)', 114572),
  ('C[C@H](O)[C@H]1NC(=O)[C@H](Cc2c[nH]c3ccccc23)NC(=O)[C@H](CCCCCS)NC(=O)[C@H](CCCCN)NC(=O)[C@@H](CC(=O)O)NC(=O)[C@@H](CCCCN)NC(=O)[C@@H](CO)NC(=O)[C@H](CC(N)=O)NC(=O)[C@H](CC(=O)O)NC1=O [des2.1.0, SHA-Trp-dThr-Asp-Asn-dSer-dLys-dAsp-Lys] (HELM PEPTIDE1{D.N.[dS].[dK].[dD].K.[O=C([C@H](CCCCCS)N[*:1])[*:2]].W.[dT]}$PEPTIDE1,PEPTIDE1,1:R1-9:R2$$$V2.0)', 260454);
